experiment: P. aeruginosa biofilm formation inhibitors, primary screen, strain PAO1, LB-PBS medium, absorbance 600 nm (AID 1176); further: test concentration not given here; conditions: P. aeruginosa PAO1 growth/biofilm, A600, 12 h; higher = more signal
MEASURED PROPERTY: z-score
Please reply with the value in numeric form only.

CC(C)NC(=O)[C@@H]1c2ccccc2C(=O)N(CC23CC4CC(CC(C4)C2)C3)[C@H]1c1ccc(CO)cc1: 0.553
CC(C)OC(=O)C=C1C[C@@H](c2ccc(C#N)cc2)O[C@@H](c2ccc(C#N)cc2)O1: -0.281
CC(C)N1CC=CC23O[C@@H]4C=CCCOC(=O)C4[C@H]2C(=O)N(CCCCCCO)[C@@H]3C1=O (some centres undefined): 0.109

Asked: Entry COCCOC(=O)N1C(=O)[C@@]2(c3cc(C#CCNC(N)=O)ccc31)[C@H](c1ccc(O)cc1)N1[C@H](c3ccccc3)[C@H](c3ccccc3)OC(=O)[C@H]1[C@@H]2C(=O)N1CCCCCCC1 has what z-score?
Given back: 0.553

---

List of composite z-score values.
biological target: Torsin-1A (Homo sapiens) (UniProt O14656); assay: torsin A binders from cell lysate, primary screen, small-molecule microarray, wild-type, 635/667 nm (AID 1149); conditions: COS7 hTOR1A-WT lysate, 635 nm fluorescence, higher = more signal
Sequence (O14656 whole entry, looked up): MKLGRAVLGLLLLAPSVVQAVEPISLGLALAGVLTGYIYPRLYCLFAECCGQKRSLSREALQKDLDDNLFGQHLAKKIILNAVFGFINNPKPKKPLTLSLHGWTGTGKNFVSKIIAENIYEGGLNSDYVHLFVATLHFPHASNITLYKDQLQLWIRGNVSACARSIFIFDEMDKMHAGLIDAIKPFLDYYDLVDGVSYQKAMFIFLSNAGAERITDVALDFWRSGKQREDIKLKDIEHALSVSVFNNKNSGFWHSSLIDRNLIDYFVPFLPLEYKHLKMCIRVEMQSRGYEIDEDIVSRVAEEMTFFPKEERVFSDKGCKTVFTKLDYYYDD

Completed entries (count: 4):
O=C1O[C@@H](c2ccccc2)[C@@H](c2ccccc2)N2[C@@H](c3ccccc3OCCO)[C@]3(C(=O)Nc4ccc(C#CCCO)cc43)[C@@H](C(=O)O)[C@H]12: 0.536
CC1CC/C=C\[C@H]2OC34C=CCN(Cn5nnc6ccccc65)C(=O)[C@H]3N(CCO)C(=O)[C@@H]4C2C(=O)O1 (some centres not stated): 2.73
O=C(NN=C1C[C@@H](O)[C@@H](O)[C@@H]2[C@@H]3C(=O)N(c4cccc(Oc5ccccc5)c4)C(=O)[C@@H]3CC[C@H]12)OCc1ccccc1: 0.0142
C[C@H](c1ccccc1)N1C(=O)[C@H]2[C@@H]3C(=CC[C@H]2C1=O)C(=O)[C@H]1O[C@H]1[C@H]3O: 0.25

Asked: For Torsin-1A (Homo sapiens) (UniProt O14656), provide composite z-score of CCCC[C@@H](O)C1=C(C)C[C@H]2C(=O)N(Cc3ccccc3)C(=O)[C@H]2[C@H]1CO please.
Given back: 0.149

Asked: For Torsin-1A (Homo sapiens) (UniProt O14656), provide composite z-score of CC(CCN1CCCCc2nc(C)c(C)cc21)=NOC(C)CN1CCCc2nc(C)c(C)cc21 (configuration not stated) please.
Given back: 1.19

Asked: For Torsin-1A (Homo sapiens) (UniProt O14656), provide composite z-score of C#CCCCON=C1C[C@@H](O)[C@@H](O)[C@@H]2[C@@H]3C(=O)N(CCC(=O)OCC)C(=O)[C@@H]3CC[C@@H]12 please.
Given back: -0.343

Asked: For Torsin-1A (Homo sapiens) (UniProt O14656), provide composite z-score of CC(C)c1ccc(NN2C(C(O)c3ccc4c(c3)OCO4)C=CC3C(=O)N(c4ccccc4)C(=O)C32)cc1 (configuration not stated) please.
Given back: -0.0945

Asked: For Torsin-1A (Homo sapiens) (UniProt O14656), provide composite z-score of C=C(CCCC)C(=O)CC[C@@H](OC(C)=O)c1cccc(OCCO)c1 please.
Given back: 1.29
